Taken from ChEMBL document CHEMBL1136462.

- assayDetails: Maximum plasma concentration (Cmax) of compound (9.92 mg/kg) after iv administration was determined Sprague-Dawley rat
- Format: ADME, organism-based
- Parameters: dose 9.92 mg/kg, route intravenous
measureName: Cmax (µg/mL)
Give the value, in units of µg/mL, as a plain number.

Lookup: Fill blank: measured Cmax of the compound `CC(=O)NC[C@H]1CN(c2ccc3c(c2)C[C@@H](C)N3C(=O)CO)C(=O)O1` is ____.
Found: 15.1

====

- Tested on: Enterococcus faecalis
- assayDetails: In vitro antibacterial activity against vancomycin susceptible Enterococcus faecalis UC19217 (VSEF)
- Assay type: functional
measureName: MIC (µg/mL)
Provide only the numeric value, understood in µg/mL.

Lookup: Lab request: please report MIC under test system Enterococcus faecalis for `CC(=O)NC[C@H]1CN(c2ccc3c(c2)C[C@@H](C)N3)C(=O)O1`
Found: 16

Lookup: // query: `CC(=O)NC[C@H]1CN(c2ccc3c(c2)OC[C@H](C)N3C=O)C(=O)O1`
Found: 32

Lookup: Let us now turn to `CC(=O)NC[C@H]1CN(c2ccc3c(c2)C[C@H](C)N3)C(=O)O1`
Found: 64

Lookup: // same read-out, input: `CC(=O)NC[C@H]1CN(c2ccc3c(c2)C[C@H](C)N3C(=O)CO)C(=O)O1`
Found: 8

====

- assayDetails: Steady state volume distribution (Vss) of compound after iv administration was determined in Sprague-Dawley rat
- Type: ADME, organism-based
- conditionParameters: in vivo, read-out: Vss
measureName: Vd (L/kg)
Unit L/kg implied. Number only.

Lookup: Which Vd is reported for this compound? `CC(=O)NC[C@H]1CN(c2ccc3c(c2)C[C@@H](C)N3C(=O)CO)C(=O)O1`
Found: 1.28

====

- assayDetails: Maximum plasma concentration (Cmax) of compound (20.73 mg/kg) after po administration was determined Sprague-Dawley rat
- Assay type: ADME, organism-based
- Design: dose 20.73 mg/kg, route oral
measureName: Cmax (ng/mL)
Number only, in ng/mL; omit the unit.

Lookup: Please report the recorded Cmax for `CC(=O)NC[C@H]1CN(c2ccc3c(c2)C[C@@H](C)N3C(=O)CO)C(=O)O1` .
Found: 3800

====

- assayDetails: Half life of compound (20.73 mg/kg) after po administration was determined in Sprague-Dawley rat
- Format: ADME, organism-based
- conditionParameters: in vivo
measureName: half-life (min)
Respond numerically; units are min and should not be typed.

Lookup: Which half-life is reported for this compound? `CC(=O)NC[C@H]1CN(c2ccc3c(c2)C[C@@H](C)N3C(=O)CO)C(=O)O1`
Found: 168

====

- assayDetails: Clearance (Cl) of compound (10 mg/kg) after iv administration was determined in Sprague-Dawley rat
- Assay type: ADME, organism-based
- conditionParameters: in vivo
measureName: clearance (mL/min/kg)
Report the figure in mL/min/kg without appending any unit label.

Lookup: Value lookup for clearance; key = `CC(=O)NC[C@H]1CN(c2ccc(N3CCOCC3)c(F)c2)C(=O)O1`
Found: 10.5

====

- assayDetails: Half life of compound (9.83 mg/kg) after iv administration was determined in Sprague-Dawley rat
- Type: ADME, organism-based
- conditionParameters: in vivo
measureName: half-life
Answer as a quantity: numeral, then unit.

Lookup: Any idea what half-life was measured for `C/C(S)=N/C[C@H]1CN(c2ccc3c(c2)C[C@@H](C)N3C=O)C(=O)O1` ?
Found: 6 min

====

- Test system: Staphylococcus epidermidis
- assayDetails: In vitro antibacterial activity against methicillin resistant Staphylococcus epidermis US 12084 (MRSE)
- Format: functional
measureName: MIC (µg/mL)
Give just the number in µg/mL; leave the unit off.

Lookup: State its MIC on Staphylococcus epidermidis: `C/C(S)=N/C[C@H]1CN(c2ccc3c(c2)C[C@H](C)N3C=O)C(=O)O1`
Found: 1

Lookup: // next record `CC(=O)NC[C@H]1CN(c2ccc3c(c2)C[C@@H](C)N3C(=O)CO)C(=O)O1`
Found: 0.5

Lookup: // repeat for `CC(=O)NC[C@H]1CN(c2ccc3c(c2)C[C@H](C)N3C=O)C(=O)O1` and report
Found: 4

Lookup: Query `CC(=O)NC[C@H]1CN(c2ccc3c(c2)C[C@@H](C)N3)C(=O)O1` next
Found: 4

====

- assayDetails: Maximum plasma concentration (Cmax) of compound (19.76 mg/kg) after po administration was determined Sprague-Dawley rat
- Type: ADME, organism-based
- Parameters: dose 19.76 mg/kg, route oral
measureName: Cmax

Lookup: For the compound `CC(=O)NC[C@H]1CN(c2ccc3c(c2)C[C@@H](C)N3C=O)C(=O)O1` , what Cmax is on record?
Found: 7200 ng/mL

====

- assayDetails: Oral bioavailability of compound (19.2 mg/kg) after po administration was determined in Sprague-Dawley rat
- Assay type: ADME, organism-based
- conditionParameters: in vivo
measureName: bioavailability (%)
The reply should be a number in %, with the unit left off.

Lookup: So what's the measured bioavailability for this one? `C/C(S)=N/C[C@H]1CN(c2ccc3c(c2)C[C@@H](C)N3C=O)C(=O)O1`
Found: 30.8

====

- Tested on: Moraxella catarrhalis
- assayDetails: In vitro antibacterial activity against Moraxella catarrhalis 30607 (b-lactamase+).
- Type: functional
So I've got a bunch of compounds here, and I need their MIC values.
Quick reminder: number only, in µg/mL, skip the unit.

Lookup: Recorded MIC for `CC(=O)NC[C@H]1CN(c2ccc3c(c2)CC[C@@H](C)N3C=O)C(=O)O1` , please?
Found: 4

Lookup: Also, `CC(=O)NC[C@H]1CN(c2ccc3c(c2)C[C@@H](C)N3C=O)C(=O)O1` please.
Found: 4

Lookup: Check `CC(=O)NC[C@H]1CN(c2ccc(N3CCOCC3)c(F)c2)C(=O)O1` too.
Found: 8

Lookup: Ok, now `C/C(S)=N/C[C@H]1CN(c2ccc3c(c2)C[C@H](C)N3C=O)C(=O)O1`
Found: 16

Lookup: // repeat for `CC(=O)NC[C@H]1CN(c2ccc3c(c2)C[C@H](C)N3C(=O)CO)C(=O)O1` and report
Found: 16

Lookup: Query `C/C(S)=N/C[C@H]1CN(c2ccc3c(c2)C[C@@H](C)N3C=O)C(=O)O1` next
Found: 1
